The measured values listed here are drawn from patent US20230105212A1.

Measured ΔTm at 10 µM by item
Measured on: human PD-L1 protein (Homo sapiens, UniProt Q9NZQ7)
Construct: purchased Acro Biosystems PD1-H5229
Sequence (Q9NZQ7 19-238 limits assumed): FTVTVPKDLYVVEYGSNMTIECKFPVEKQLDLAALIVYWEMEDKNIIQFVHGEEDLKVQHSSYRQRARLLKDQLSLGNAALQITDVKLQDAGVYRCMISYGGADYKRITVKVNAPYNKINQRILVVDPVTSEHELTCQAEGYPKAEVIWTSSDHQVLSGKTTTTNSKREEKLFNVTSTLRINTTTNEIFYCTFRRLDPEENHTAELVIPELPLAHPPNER
Method: Thermal shift: melting temperature of PD-L1 protein
Type: binding
Particulars: compound 10 μM, PD-L1 protein 2 μM, Tm minus DMSO vehicle control; read-out: ΔTm (° C.)

Compound	ΔTm at 10 µM
COC(=O)[C@H](CO)NCc1cnc(-c2cccc(-c3cccc(NC(=O)c4nc5c(n4C)CCN(C)C5)c3Cl)c2Cl)nc1OC [Embodiment 227]	11.9 °C
COc1nc(-c2cccc(-c3cccc(NC(=O)c4nc5c(n4C)CCN(C)C5)c3Cl)c2Cl)ccc1CN1CC2(COC2)C1 [Embodiment 124]	16.2 °C
COc1nc(-c2cccc(-c3cccc(NC(=O)c4nc5c(n4C)CCN(C)C5)c3Cl)c2Cl)ccc1CN1CCN(C(C)=O)CC1 [Embodiment 203]	13.5 °C

###

Measured on: human PD-1/PD-L1 binding (Homo sapiens)
Construct: PD-L1-His protein (19 to 238 amino acids) (Abcam #ab167713); purchased Abcam (PD-L1-His); R&D (PD-1-Fc) ab167713; 1086-PD
Sequence (Q9NZQ7 19-238): as the sequence (Q9NZQ7 19-238 limits assumed) above
Method: Inhibition of human PD-1/PD-L1 binding (TR-FRET/HTRF)
Description: Test Embodiment 1: Test of Inhibitory Effect of the Compounds of the Present Disclosure on Human PD-1/PD-L1 Binding […] This experiment was performed in a 384-well plate with a total reaction volume of 20 μL. […] The reaction was carried out at room temperature for 3 hours or at 4° C. overnight, then a microplate reader (BioTek Synergy H1) was put into for reading; the excitation wavelength was 340 nm, and the emission wavelengths were 620 nm and 665 nm. […]
pIC50: −log10 of the molar value.
Measure name: pIC50

Molecule	Measured on	Measure name	Recorded measurement
CCC(=O)N1CC2(CN(Cc3ccc(-c4cccc(-c5cccc(NC(=O)c6nc7c(n6C)CCN(C)C7)c5Cl)c4Cl)nc3OC)C2)C1 [Embodiment 188]	human PD-1/PD-L1 binding (Homo sapiens)	pIC50	8.20

###

Parameter: ΔTm at 10 µM. Scope: all listed entries.
Measured on: human PD-L1 protein (Homo sapiens, UniProt Q9NZQ7)
Construct: purchased Acro Biosystems PD1-H5229
Method: Thermal shift: melting temperature of PD-L1 protein
Format: binding
Particulars: compound 10 μM, PD-L1 protein 2 μM, Tm minus DMSO vehicle control; read-out: ΔTm (° C.)

Compound	Output unit	ΔTm at 10 µM
COc1nc(-c2cccc(-c3cccc(NC(=O)c4nc5c(n4C)CCN(C)C5)c3Cl)c2Cl)ccc1CN1CCCC[C@H]1C(=O)O [Embodiment 230]	°C	11.3
COc1nc(-c2cccc(-c3cccc(NC(=O)c4nc5c(n4C)CCN(C)C5)c3Cl)c2Cl)ccc1CNC[C@H](C)O [Embodiment 127]	°C	18.7
COc1nc(-c2cccc(-c3cccc(NC(=O)c4nc5c(n4C)CCN(C)C5)c3Cl)c2Cl)ccc1CN1CC2(CCN(C(=O)C(C)C)C2)C1 [Embodiment 196]	°C	12.4
COc1nc(-c2cccc(-c3cccc(NC(=O)c4nc5c(n4C)CCN(C)C5)c3Cl)c2Cl)ccc1CN1CC(CNC(C)=O)C1 [Embodiment 181]	°C	15
COc1nc(-c2cccc(-c3cccc(NC(=O)c4nc5c(n4C)CCN(C)C5)c3Cl)c2Cl)ccc1CN[C@@H](CO)C(=O)O [Embodiment 232]	°C	11.1
COc1cc(C(=O)Nc2cccc(-c3cccc(NC(=O)c4nc5c(n4C)CCN(C)C5)c3Cl)c2C)ncc1CN[C@@H]1CONC1=O [Embodiment 96]	°C	10.5
COc1nc(-c2cccc(-c3cccc(NC(=O)c4nc5c(n4C)CCN(C)C5)c3Cl)c2Cl)ccc1CN1CCC(C)(C#N)CC1 [Embodiment 212]	°C	14.9
COc1nc(-c2cccc(-c3cccc(NC(=O)c4nc5c(n4C)CCN(C)C5)c3Cl)c2Cl)ccc1CN1CC(O)(CO)C1 [Embodiment 173]	°C	13.5
COc1nc(-c2cccc(-c3cccc(NC(=O)c4nc5c(n4C)CCN(C)C5)c3Cl)c2Cl)ccc1CN1CC2(CC(O)C2)C1 [Embodiment 185]	°C	20.9
COc1nc(-c2cccc(-c3cccc(NC(=O)c4nc5c(n4C)CCN(C)C5)c3Cl)c2Cl)ccc1CN1CC2(C1)CN(C(=O)C(F)(F)F)C2 [Embodiment 189]	°C	19.5
COc1nc(-c2cccc(-c3cccc(NC(=O)c4nc5c(n4C)CCN(C)C5)c3Cl)c2Cl)ccc1CNCC1(C#N)CC1 [Embodiment 213]	°C	14.5
COc1nc(-c2cccc(-c3cccc(NC(=O)c4nc5c(n4C)CCN(C)C5)c3Cl)c2Cl)ccc1CNC1CCOCC1C(=O)O (stereo not shown) [Embodiment 214]	°C	10.2
CNC(=O)C1CN(Cc2ccc(-c3cccc(-c4cccc(NC(=O)c5nc6c(n5C)CCN(C)C6)c4Cl)c3Cl)nc2OC)C1 [Embodiment 184]	°C	16.7

###

Drug concentration in plasma overview
Method: Pharmacokinetic test of plasma and tumor of tumor-bearing nude mice
Format: in vivo
Particulars: tumor-bearing nude mice, p.o. 30 mg/kg
Measure name: Drug concentration in plasma (ng/mL)

Compound	Output unit	Recorded measurement
COc1nc(-c2cccc(-c3cccc(NC(=O)c4nc5c(n4C)CCN(C)C5)c3Cl)c2Cl)ccc1CN[C@H]1CCOC[C@@H]1O (relative stereo)	ng/mL	485
COc1nc(-c2cccc(-c3cccc(NC(=O)c4nc5c(n4C)CCN(C)C5)c3Cl)c2Cl)ccc1CN1CC2(C1)CN(C(C)=O)C2	ng/mL	821
COc1nc(-c2cccc(-c3cccc(NC(=O)c4nc5c(n4C)CCN(C)C5)c3Cl)c2Cl)ccc1CN1CC(C(=O)N(C)C)C1	ng/mL	309
COc1nc(-c2cccc(-c3cccc(NC(=O)c4nc5c(n4C)CCN(C)C5)c3Cl)c2Cl)cnc1CN1CC2(C1)CN(C(C)=O)C2	ng/mL	153
COc1nc(-c2cccc(-c3cccc(NC(=O)c4nc5c(n4C)CCN(C)C5)c3Cl)c2Cl)ncc1CN1CC(CO)C1	ng/mL	432
COc1nc(-c2cccc(-c3cccc(NC(=O)c4nc5c(n4C)CCN(C)C5)c3Cl)c2Cl)ccc1CNC(CO)CO	ng/mL	291
COc1nc(-c2cccc(-c3cccc(NC(=O)c4nc5c(n4C)CCN(C)C5)c3Cl)c2Cl)ccc1CN1CC(O)(CO)C1	ng/mL	291

###

Measured on: human PD-L1 protein (Homo sapiens, UniProt Q9NZQ7)
Construct: purchased Acro Biosystems PD1-H5229
Method: Thermal shift: melting temperature of PD-L1 protein
Format: binding
Particulars: compound 10 μM, PD-L1 protein 2 μM, Tm minus DMSO vehicle control; read-out: ΔTm (° C.)

Molecule	ΔTm at 10 µM, °C
COc1cc(C(=O)Nc2cccc(-c3cccc(NC(=O)c4nc5c(n4C)CCN(C)C5)c3Cl)c2C)ncc1CN[C@@H]1CCOC[C@@H]1F [Embodiment 30]	11.2
COc1nc(-c2cccc(-c3cccc(NC(=O)c4nc5c(n4C)CCN(C)C5)c3Cl)c2Cl)ccc1CN1CC2(C1)CN(C(=O)C(C)C)C2 [Embodiment 186]	21.4
CCn1c(C(=O)Nc2cccc(-c3cccc(-c4ccc(CN[C@H]5CCOC[C@@H]5O)c(OC)n4)c3Cl)c2Cl)nc2c1CCN(C)C2 (relative stereo) [Embodiment 235]	11.3
COc1nc(-c2cccc(-c3cccc(NC(=O)c4nc5c(n4C4CC4)CCN(C)C5)c3Cl)c2Cl)ccc1CN1CC(CO)C1 [Embodiment 245]	10.2
COc1nc(-c2cccc(-c3cccc(NC(=O)c4nc5c(n4C4CC4)CCN(C)C5)c3Cl)c2Cl)ccc1CN[C@H]1CCOC[C@@H]1O (relative stereo) [Embodiment 244]	11.4
COc1nc(-c2cccc(-c3cccc(NC(=O)c4nc5c(n4C)CCN(C)C5)c3Cl)c2Cl)ccc1CN1CC(CO)C1 [Embodiment 215]	17.3

###

System: NFAT-luc2/PD1 Jurkat cells
Method: In vitro cytotoxicity on NFAT-luc2/PD1 Jurkat cells (CellTiter-Glo)
Format: cell-based
Particulars: Homo sapiens, Jurkat, 72 hours
Measure name: IC50 (µM)

Smiles entry	Measured on	Measure name	Result comparator	Recorded measurement
COc1nc(-c2cccc(-c3cccc(NC(=O)c4nc5c(n4C)CCN(C)C5)c3Cl)c2Cl)ccc1CN1CC(CO)C1	NFAT-luc2/PD1 Jurkat cells	IC50	=	4.32
COc1nc(-c2cccc(-c3cccc(NC(=O)c4nc5c(n4C)CCN(C)C5)c3Cl)c2Cl)cnc1CN1CC2(C1)CN(C(C)=O)C2	NFAT-luc2/PD1 Jurkat cells	IC50	=	4.46
COc1cc(-c2cccc(-c3cccc(NC(=O)c4nc5c(n4C)CCN(C)C5)c3Cl)c2Cl)ccc1CNCC(=O)O	NFAT-luc2/PD1 Jurkat cells	IC50	>	10
COc1nc(-c2cccc(-c3cccc(NC(=O)c4nc5c(n4C)CCN(C)C5)c3Cl)c2Cl)ncc1CN1CC(NC(C)=O)C1	NFAT-luc2/PD1 Jurkat cells	IC50	=	9.5
COc1nc(-c2cccc(-c3cccc(NC(=O)c4nc5c(n4C)CCN(C)C5)c3Cl)c2Cl)ncc1CN1CC(CO)C1	NFAT-luc2/PD1 Jurkat cells	IC50	=	4.77
COc1nc(-c2cccc(-c3cccc(NC(=O)c4nc5c(n4C)CCN(C)C5)c3Cl)c2Cl)ncc1CN1CC(CNC(C)=O)C1	NFAT-luc2/PD1 Jurkat cells	IC50	=	9.07
